Protocol summary: Metabolic stability in rat liver microsomes
Format: in vitro ADME, Sprague–Dawley rats
Condition details: male, Sprague-Dawley, pooled rat liver microsomes; rat liver microsomes, 50 min
Measured property: remaining at 50 min, 0.49 µM (%)
Write the value in % as a bare number.

GET /values?readout=remaining at 50 min, 0.49 µM&item= Cc1c(C#N)cccc1-c1cc(-c2cn(Cc3cccc(C#N)n3)nn2)nc(N)n1 64.2

GET /values?readout=remaining at 50 min, 0.49 µM&item= Cc1c(C#N)cccc1-c1cc(-c2cn(Cc3cccc(C(C)(C)O)n3)nn2)nc(N)n1 [AB928, reference compound] 35.6

GET /values?readout=remaining at 50 min, 0.49 µM&item= CCOc1ccc2ccc(=O)oc2c1 [Compound 7-EC, 7-ethoxycoumarin, reference compound] 1.02

GET /values?readout=remaining at 50 min, 0.49 µM&item= Cc1c(C#N)cccc1-c1cc(-c2cn(Cc3cccc(C(N)=O)n3)nn2)nc(N)n1 53.8

###

The following compounds are listed with their measured half-life at 0.49 µM values.
Protocol summary: Metabolic stability in human liver microsomes
Assay type: in vitro ADME
Condition details: male, human, microsomes
Procedure: The metabolic stability is an important focus for further compound optimisation. Compounds 7f, 7i, and AB928 were chosen to evaluate the stability in rat liver microsomes and human liver microsomes. For the microsomal metabolic experiment, 7-ethoxycoumarin (7-EC) was used as a control. […] incubated at 37 ℃ for 5 min. […] Then 50 μL of the supernatant was analyzed […] USA). […] Quantification was performed using multiple reaction monitoring (MRM) mode to monitor precursor-product ion transitions (Table S1). […]
Write the value in h as a bare number.

Solved cases below.
Compound	Measured property	Reported value
CCOc1ccc2ccc(=O)oc2c1 [Compound 7-EC, 7-ethoxycoumarin, reference compound]	half-life at 0.49 µM	0.135
Cc1c(C#N)cccc1-c1cc(-c2cn(Cc3cccc(C(N)=O)n3)nn2)nc(N)n1	half-life at 0.49 µM	19.2

GET /values?readout=half-life at 0.49 µM&item= Cc1c(C#N)cccc1-c1cc(-c2cn(Cc3cccc(C(C)(C)O)n3)nn2)nc(N)n1 [AB928, reference compound] 7.22

###

Protocol summary: In vivo pharmacokinetics study in Balb/c mice
Condition details: female, Balb/c, mouse, plasma, iv, 10 mg/kg, i.v. 10 mg/kg, read-out: tmax i.v.
Measured property: Tmax (min)
Write the value in min as a bare number.

GET /values?readout=Tmax&item= Cc1c(C#N)cccc1-c1cc(-c2cn(Cc3cccc(C#N)n3)nn2)nc(N)n1 [Compound 7f] 15

###

Protocol summary: In vivo pharmacokinetics study in Balb/c mice
Condition details: female, Balb/c, mouse, iv, i.v. 10 mg/kg, plasma, read-out: Cmax i.v.
The following compounds are listed with their measured Cmax values.
Kindly write the number and append the unit.

Compound	Reported value
Cc1c(C#N)cccc1-c1cc(-c2cn(Cc3cccc(C#N)n3)nn2)nc(N)n1 [Compound 7f]	5010 ng/mL

Now look at this entry.
GET /values?readout=Cmax&item= Cc1c(C#N)cccc1-c1cc(-c2cn(Cc3cccc(C(N)=O)n3)nn2)nc(N)n1 [Compound 7i] 7270 ng/mL

###

Protocol summary: Metabolic stability in rat liver microsomes
Assay type: in vitro ADME, Sprague–Dawley rats
Condition details: rat liver microsomes
The following molecules are listed with their measured CLint(liver) Rat values.
Write the value in mL/min/g as a bare number.

Solved cases below.
Molecule	Reported value
Cc1c(C#N)cccc1-c1cc(-c2cn(Cc3cccc(C#N)n3)nn2)nc(N)n1	0.78
CCOc1ccc2ccc(=O)oc2c1 [Compound 7-EC, 7-ethoxycoumarin, reference compound]	10.0
Cc1c(C#N)cccc1-c1cc(-c2cn(Cc3cccc(C(N)=O)n3)nn2)nc(N)n1	1.08

Now look at this entry.
GET /values?readout=CLint(liver) Rat&item= Cc1c(C#N)cccc1-c1cc(-c2cn(Cc3cccc(C(C)(C)O)n3)nn2)nc(N)n1 [AB928, reference compound] 2.15
